# Test system: HCT-116
# Assay notes: in vitro cytotoxicity assay, HCT-116 human colon tumor
# Assay type: cell-based
# Test context: Homo sapiens, HCT-116, concentration required to inhibit cell growth by 50%, four-fold serial dilution; replicate determinations on separate lines
Measured IC50, listed per entry.
Write the answer as a number in µg/mL, unit excluded.

Which IC50 reading was recorded for the compound COc1cc([C@@H]2c3cc4c(cc3[C@@H](O[C@@H]3O[C@@H]5CO[C@@H](C)O[C@H]5[C@H](O)[C@H]3O)[C@H]3CN(NCc5ccccc5)C(=O)[C@H]23)OCO4)cc(OC)c1O ? 105

Please give the result for CCCCCCCC(=O)Oc1c(OC)cc([C@@H]2c3cc4c(cc3[C@@H](O[C@@H]3O[C@@H]5CO[C@@H](C)O[C@H]5[C@H](O)[C@H]3O)[C@H]3CN(N=Cc5ccccc5)C(=O)[C@H]23)OCO4)cc1OC too. 17.3

* * *

# Tested on: HCT-116
# Assay notes: in vitro cytotoxicity assay, HCT-116 human colon tumor
# Type: cell-based
# Test context: Homo sapiens, HCT-116, concentration required to inhibit cell growth by 50%, four-fold serial dilution; replicate determinations on separate lines
Measured IC50, listed per entry.
Write the answer as a number in µg/mL, unit excluded.

{"Compound": "COc1cc([C@@H]2c3cc4c(cc3[C@@H](O[C@@H]3O[C@@H]5CO[C@@H](C)O[C@H]5[C@H](O)[C@H]3O)[C@H]3CN(N=Cc5ccc([N+](=O)[O-])cc5)C(=O)[C@H]23)OCO4)cc(OC)c1O", "Assayed target": "HCT-116", "IC50 [µg/mL]": 83.6}

With those in mind, consider the next compound.
Which IC50 reading was recorded for the compound COc1cc([C@@H]2c3cc4c(cc3[C@@H](O[C@@H]3O[C@@H]5CO[C@@H](C)O[C@H]5[C@H](O)[C@H]3O)[C@H]3CN(N=C(C)C)C(=O)[C@H]23)OCO4)cc(OC)c1O (relative stereo) ? 69.4

* * *

# System: SW900 human lung
# Assay notes: in vitro cytotoxicity assay, SW900 human lung
# Assay type: cell-based
# Test context: Homo sapiens, SW900, concentration required to inhibit cell growth by 50%, four-fold serial dilution; replicate determinations on separate lines
Measured IC50, listed per entry.
Write the answer as a number in µg/mL, unit excluded.

Examples from the recorded data:
{"Compound": "CCCCCCCC(=O)Oc1c(OC)cc([C@@H]2c3cc4c(cc3[C@@H](O[C@@H]3O[C@@H]5CO[C@@H](C)O[C@H]5[C@H](O)[C@H]3O)[C@H]3CN(N=Cc5ccccc5)C(=O)[C@H]23)OCO4)cc1OC [Example 10]", "Result": 21.2}
{"Compound": "CCCCCCCC(=O)Oc1c(OC)cc([C@@H]2c3cc4c(cc3[C@@H](O[C@@H]3O[C@@H]5CO[C@@H](C)O[C@H]5[C@H](O)[C@H]3O)[C@H]3CNC(=O)[C@H]23)OCO4)cc1OC [Example 11]", "Result": 12.3}

With those in mind, consider the next compound.
Which IC50 reading was recorded for the compound COc1cc([C@@H]2c3cc4c(cc3[C@@H](O[C@@H]3O[C@@H]5CO[C@@H](C)O[C@H]5[C@H](O)[C@H]3O)[C@H]3CNC(=O)[C@H]23)OCO4)cc(OC)c1O [Example 5] ? 107

Cited source for all entries: patent US4958010A
